Every entry's value here was drawn from ChEMBL document CHEMBL4706694.

Target: UniProt Q12809
Sequence (Q12809 whole entry): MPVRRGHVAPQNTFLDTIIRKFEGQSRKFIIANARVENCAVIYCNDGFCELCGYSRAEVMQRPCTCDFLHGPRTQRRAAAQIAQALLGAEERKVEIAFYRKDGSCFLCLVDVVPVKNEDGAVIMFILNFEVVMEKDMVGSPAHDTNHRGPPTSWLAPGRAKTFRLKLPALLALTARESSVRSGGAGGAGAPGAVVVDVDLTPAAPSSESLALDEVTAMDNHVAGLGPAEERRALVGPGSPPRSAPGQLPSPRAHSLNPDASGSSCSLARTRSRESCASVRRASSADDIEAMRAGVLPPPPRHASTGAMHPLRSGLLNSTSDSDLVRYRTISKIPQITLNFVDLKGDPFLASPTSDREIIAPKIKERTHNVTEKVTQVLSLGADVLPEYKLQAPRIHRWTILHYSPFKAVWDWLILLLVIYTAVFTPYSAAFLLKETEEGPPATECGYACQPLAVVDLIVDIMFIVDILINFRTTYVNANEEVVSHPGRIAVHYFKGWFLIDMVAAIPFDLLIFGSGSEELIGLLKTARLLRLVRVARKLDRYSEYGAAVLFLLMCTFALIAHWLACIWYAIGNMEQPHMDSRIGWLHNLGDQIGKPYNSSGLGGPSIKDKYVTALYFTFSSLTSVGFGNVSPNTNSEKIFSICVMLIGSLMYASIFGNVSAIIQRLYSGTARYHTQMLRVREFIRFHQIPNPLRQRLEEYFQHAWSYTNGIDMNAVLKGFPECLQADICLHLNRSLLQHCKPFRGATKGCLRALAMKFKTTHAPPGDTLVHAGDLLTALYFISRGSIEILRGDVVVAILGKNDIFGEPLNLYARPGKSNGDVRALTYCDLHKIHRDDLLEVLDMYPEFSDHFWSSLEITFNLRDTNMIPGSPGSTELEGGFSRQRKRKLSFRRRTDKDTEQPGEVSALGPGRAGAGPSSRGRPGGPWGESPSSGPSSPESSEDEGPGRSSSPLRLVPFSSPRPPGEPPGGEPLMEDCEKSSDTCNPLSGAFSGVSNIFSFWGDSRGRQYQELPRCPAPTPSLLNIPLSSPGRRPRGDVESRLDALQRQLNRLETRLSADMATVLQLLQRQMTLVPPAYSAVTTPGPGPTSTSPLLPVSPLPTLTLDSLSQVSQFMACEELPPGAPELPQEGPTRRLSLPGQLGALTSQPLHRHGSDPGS
Test: Inhibition of human ERG at 10 uM by automated patch method relative to control
Endpoint Name: inhibition at 10 µM

Line Notation	Endpoint Name	Measured Result
COCCN1CCN(c2ccc(Nc3nccc(-c4c(-c5cccnc5)nn5c4COCC5)n3)cc2)CC1	inhibition at 10 µM	3.6%

----------
The following molecules are shown together with reported Papp A→B at 10 µM values.
Target: MDR1 (ABCB1, P-glycoprotein) (Homo sapiens)
Sequence (P08183 whole entry): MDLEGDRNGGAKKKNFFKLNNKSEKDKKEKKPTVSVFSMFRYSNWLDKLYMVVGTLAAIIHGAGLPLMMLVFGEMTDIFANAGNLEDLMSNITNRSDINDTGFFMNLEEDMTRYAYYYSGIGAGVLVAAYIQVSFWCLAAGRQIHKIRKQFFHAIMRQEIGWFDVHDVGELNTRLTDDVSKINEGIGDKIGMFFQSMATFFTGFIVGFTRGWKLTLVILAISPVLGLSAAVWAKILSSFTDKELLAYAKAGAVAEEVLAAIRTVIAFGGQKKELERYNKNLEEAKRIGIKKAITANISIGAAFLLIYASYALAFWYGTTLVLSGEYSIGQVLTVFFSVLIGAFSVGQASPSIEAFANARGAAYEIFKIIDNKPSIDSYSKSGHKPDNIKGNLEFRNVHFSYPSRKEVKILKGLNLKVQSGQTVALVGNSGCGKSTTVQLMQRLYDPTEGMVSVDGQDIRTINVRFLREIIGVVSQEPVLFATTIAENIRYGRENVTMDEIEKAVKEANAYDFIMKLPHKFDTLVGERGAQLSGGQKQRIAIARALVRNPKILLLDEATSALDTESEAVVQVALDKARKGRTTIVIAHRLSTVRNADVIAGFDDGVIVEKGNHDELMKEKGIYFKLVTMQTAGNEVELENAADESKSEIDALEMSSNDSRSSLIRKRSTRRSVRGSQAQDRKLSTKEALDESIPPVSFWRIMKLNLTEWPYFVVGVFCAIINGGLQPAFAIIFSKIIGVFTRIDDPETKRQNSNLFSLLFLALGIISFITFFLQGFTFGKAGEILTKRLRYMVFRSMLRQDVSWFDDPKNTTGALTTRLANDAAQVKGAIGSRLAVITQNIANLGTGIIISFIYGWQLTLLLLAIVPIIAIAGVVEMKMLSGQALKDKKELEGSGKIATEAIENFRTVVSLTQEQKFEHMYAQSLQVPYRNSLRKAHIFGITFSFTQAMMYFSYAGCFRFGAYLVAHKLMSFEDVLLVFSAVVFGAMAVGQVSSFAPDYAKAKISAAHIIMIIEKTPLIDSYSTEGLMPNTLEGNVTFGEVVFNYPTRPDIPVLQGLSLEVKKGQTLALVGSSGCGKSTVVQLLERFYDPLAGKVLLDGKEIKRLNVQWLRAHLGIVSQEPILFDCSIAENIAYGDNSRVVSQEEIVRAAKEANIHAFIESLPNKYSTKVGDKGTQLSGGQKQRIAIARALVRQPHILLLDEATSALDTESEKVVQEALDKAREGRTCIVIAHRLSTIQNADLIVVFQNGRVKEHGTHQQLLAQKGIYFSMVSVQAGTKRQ
Experiment: Substrate activity at human MDR1 expressed in MDCK-II cells assessed as apparent permeability across apical to basolateral membrane at 10 uM by LC-MS/MS analysis
Assay type: ADME, cell-based

Line Notation	Papp A→B at 10 µM [×10⁻⁶ cm/s]
COCCN1CCN(c2ccc(Nc3nccc(-c4c(-c5cccnc5)nn5c4COCC5)n3)cc2)CC1	8.69
c1cncc(-c2nn3c(c2-c2ccnc(Nc4ccc(N5CCNCC5)cc4)n2)COCC3)c1	0.906
CN1CCN(c2ccc(Nc3nccc(-c4c(-c5cccnc5)nn5c4COCC5)n3)cc2)CC1	4.37

----------
Test: Metabolic stability in rat liver microsomes assessed as parent compound remaining incubated for 60 mins in presence of NADPH by LC-MS/MS analysis
Settings: read-out: Stabilty
The following molecules are shown together with reported remaining at 1 h values.

Line Notation	remaining at 1 h
COc1ccc(Nc2nccc(-c3c[nH]nc3-c3cccnc3)n2)cc1	2.1%
COCCN1CCN(c2ccc(Nc3nccc(-c4c(-c5cccnc5)nn5c4COCC5)n3)cc2)CC1	40.5%
